- Species: Mus musculus
- TEST_DESCRIPTION: Median protective dose determined in acute lethal system infection caused by Streptococcus pyogenes C-203 in CD-1 mice (single dose perorally)
- Format: functional
- MEASUREMENT_SETUP: po, read-out: PD50
The following compounds are listed with their measured ED50 values.
Write the value in mg/kg as a bare number.

Before answering, review these 5 worked examples.
COMPOUND: NCC1CN(c2nc3c(cc2F)c(=O)c(C(=O)O)cn3C2CC2)CC1c1ccco1 (trans isomer)
ED50, mg/kg: 36

COMPOUND: NC1CN(c2c(F)cc3c(=O)c(C(=O)O)cn(C4CC4)c3c2F)CC1c1ccc(F)cc1 (trans isomer)
ED50, mg/kg: 44

COMPOUND: NCC1CN(c2c(F)cc3c(=O)c(C(=O)O)cn(C4CC4)c3c2F)CC1c1ccccc1 (trans isomer)
ED50, mg/kg: 10

COMPOUND: NCC1CN(c2nc3c(cc2F)c(=O)c(C(=O)O)cn3C2CC2)CC1c1ccccc1 (trans isomer)
ED50, mg/kg: 27

COMPOUND: COc1ccccc1C1CN(c2nc3c(cc2F)c(=O)c(C(=O)O)cn3C2CC2)CC1N (stereo in doubt)
ED50, mg/kg: 44

Reported ED50 ( NC1CN(c2c(F)cc3c(=O)c(C(=O)O)cn(C4CC4)c3c2F)CC1c1ccccc1 (trans isomer) ) = 10

Reported ED50 ( CC(C)c1ccc(C2CN(c3c(F)cc4c(=O)c(C(=O)O)cn(C5CC5)c4c3F)CC2N)cc1 (trans isomer) ) = 100

###

- Test system: Providencia rettgeri
- TEST_DESCRIPTION: Minimum inhibitory concentration against Providencia rettgeri M-1771
- Type: functional
- MEASUREMENT_SETUP: Providencia rettgeri; read-out: MIC
Mark satisfied only for MIC values smaller than 0.4 µg/mL; exact matches and larger values are not satisfied.

Below, 8 molecules whose answers are already recorded.
MOLECULE: NCC1CN(c2c(F)c(N)c3c(=O)c(C(=O)O)cn(C4CC4)c3c2F)CC1c1ccc(N)cc1 (trans isomer)
STUDY_TARGET: Providencia rettgeri
CLASSIFICATION: satisfied
--
MOLECULE: NCC1CN(c2nc3c(cc2F)c(=O)c(C(=O)O)cn3C2CC2)CC1c1ccccc1 (trans isomer)
STUDY_TARGET: Providencia rettgeri
CLASSIFICATION: satisfied
--
MOLECULE: Nc1ccc(C2CN(c3c(F)cc4c(=O)c(C(=O)O)cn(C5CC5)c4c3F)CC2N)cc1 (trans isomer)
STUDY_TARGET: Providencia rettgeri
CLASSIFICATION: satisfied
--
MOLECULE: COc1ccccc1C1CN(c2c(F)cc3c(=O)c(C(=O)O)cn(C4CC4)c3c2F)CC1N (trans isomer)
STUDY_TARGET: Providencia rettgeri
CLASSIFICATION: not satisfied
--
MOLECULE: NCC1CN(c2nc3c(cc2F)c(=O)c(C(=O)O)cn3C2CC2)CC1c1ccco1 (trans isomer)
STUDY_TARGET: Providencia rettgeri
CLASSIFICATION: satisfied
--
MOLECULE: NC1CN(c2cc3c(cc2F)c(=O)c(C(=O)O)cn3C2CC2)CC1C1CC1 (configuration not stated)
STUDY_TARGET: Providencia rettgeri
CLASSIFICATION: satisfied
--
MOLECULE: COC(=O)c1ccc(C2CN(c3c(F)cc4c(=O)c(C(=O)O)cn(C5CC5)c4c3F)CC2N)cc1 (configuration not stated)
STUDY_TARGET: Providencia rettgeri
CLASSIFICATION: not satisfied
--
MOLECULE: NCC1CN(c2c(F)cc3c(=O)c(C(=O)O)cn(C4CC4)c3c2F)CC1c1ccc(N)cc1 (configuration not stated)
STUDY_TARGET: Providencia rettgeri
CLASSIFICATION: satisfied

Confirm or reject: MIC of NC1CN(c2c(F)cc3c(=O)c(C(=O)O)cn(C4CC4)c3c2F)CC1c1ccc(Cl)c(Cl)c1 (trans isomer) lies strictly below 0.4 µg/mL
satisfied

Confirm or reject: MIC of NCC1CN(c2c(F)cc3c(=O)c(C(=O)O)cn(C4CC4)c3c2F)CC1c1ccccc1 (trans isomer) lies strictly below 0.4 µg/mL
satisfied

Confirm or reject: MIC of NCC1CN(c2c(F)cc3c(=O)c(C(=O)O)cn(C4CC4)c3c2F)CC1c1ccco1 (configuration not stated) lies strictly below 0.4 µg/mL
satisfied

Confirm or reject: MIC of NCC1CN(c2nc3c(cc2F)c(=O)c(C(=O)O)cn3C2CC2)CC1c1ccc(N)cc1 (cis isomer) lies strictly below 0.4 µg/mL
not satisfied

Confirm or reject: MIC of NCc1cccc(C2CN(c3nc4c(cc3F)c(=O)c(C(=O)O)cn4C3CC3)CC2N)c1 (trans isomer) lies strictly below 0.4 µg/mL
not satisfied

###

- Tested on: Pseudomonas aeruginosa
- TEST_DESCRIPTION: Minimum inhibitory concentration against Pseudomonas aeruginosa UI-18
- Type: functional
- MEASUREMENT_SETUP: Pseudomonas aeruginosa; read-out: MIC
MEASURED_QUANTITY: MIC (µg/mL)
Write the value in µg/mL as a bare number.

COMPOUND: Nc1ccc(C2CN(c3nc4c(cc3F)c(=O)c(C(=O)O)cn4C3CC3)CC2N)cc1 (trans isomer)
UNITS_TEXT: µg/mL
MIC: 1.6

Measured MIC (Pseudomonas aeruginosa), entry COC(=O)c1ccc(C2CN(c3c(F)cc4c(=O)c(C(=O)O)cn(C5CC5)c4c3F)CC2N)cc1 (stereo not drawn) : 3.1

Measured MIC (Pseudomonas aeruginosa), entry NCC1CN(c2c(F)cc3c(=O)c(C(=O)O)cn(C4CC4)c3c2F)CC1c1ccco1 (stereo not drawn) : 0.4

Measured MIC (Pseudomonas aeruginosa), entry NC1CN(c2nc3c(cc2F)c(=O)c(C(=O)O)cn3C2CC2)CC1c1ccc(F)cc1 (trans isomer) : 1.6

Measured MIC (Pseudomonas aeruginosa), entry NCC1CN(c2nc3c(cc2F)c(=O)c(C(=O)O)cn3C2CC2)CC1c1ccccc1 (trans isomer) : 0.8

Measured MIC (Pseudomonas aeruginosa), entry NC1CN(c2cc3c(cc2F)c(=O)c(C(=O)O)cn3C2CC2)CC1C1CC1 (stereo not drawn) : 0.8

Measured MIC (Pseudomonas aeruginosa), entry NC1CN(c2c(F)cc3c(=O)c(C(=O)O)cn(C4CC4)c3c2F)CC1c1ccccc1 (trans isomer) : 0.8

Measured MIC (Pseudomonas aeruginosa), entry NCC1CN(c2c(F)cc3c(=O)c(C(=O)O)cn(C4CC4)c3c2F)CC1c1ccc(N)cc1 (stereo not drawn) : 1.6

###

- Organism: Mus musculus
- TEST_DESCRIPTION: Median protective dose determined in acute lethal system infection caused by Escherichia coli vogel in CD-1 mice (single dose perorally)
- Assay type: functional
- MEASUREMENT_SETUP: po, read-out: PD50
MEASURED_QUANTITY: ED50
State the result as a value with its unit after it.

Before answering, review these 3 worked examples.
MOLECULE: Nc1ccc(C2CN(c3nc4c(cc3F)c(=O)c(C(=O)O)cn4C3CC3)CC2N)cc1 (trans isomer)
ED50: 24 mg/kg
--
MOLECULE: NC1CN(c2c(F)cc3c(=O)c(C(=O)O)cn(C4CC4)c3c2F)CC1c1ccccc1 (trans isomer)
ED50: 15.5 mg/kg
--
MOLECULE: NC1CN(c2nc3c(cc2F)c(=O)c(C(=O)O)cn3C2CC2)CC1c1ccccc1 (configuration not stated)
ED50: 11 mg/kg

Reported ED50 ( COc1ccccc1C1CN(c2nc3c(cc2F)c(=O)c(C(=O)O)cn3C2CC2)CC1N (stereo in doubt) ) = 37 mg/kg

Reported ED50 ( NC1CN(c2nc3c(cc2F)c(=O)c(C(=O)O)cn3C2CC2)CC1c1ccc(F)cc1 (trans isomer) ) = 18 mg/kg

Reported ED50 ( Nc1ccc(C2CN(c3c(F)cc4c(=O)c(C(=O)O)cn(C5CC5)c4c3F)CC2N)cc1 (trans isomer) ) = 10 mg/kg

Reported ED50 ( NC1CN(c2c(F)cc3c(=O)c(C(=O)O)cn(C4CC4)c3c2F)CC1c1ccc(O)cc1 (trans isomer) ) = 100 mg/kg

###

- Tested on: Pseudomonas aeruginosa
- TEST_DESCRIPTION: Minimum inhibitory concentration against Pseudomonas aeruginosa UI-18
- Type: functional
- MEASUREMENT_SETUP: Pseudomonas aeruginosa; read-out: MIC
MEASURED_QUANTITY: MIC (µg/mL)
Write the value in µg/mL as a bare number.

Before answering, review these 5 worked examples.
COMPOUND: NC1CN(c2nc3c(cc2F)c(=O)c(C(=O)O)cn3C2CC2)CC1c1ccccc1 (stereo not drawn)
MEASURED_QUANTITY: MIC
MEASURED_VALUE: 1.6
//
COMPOUND: CN(C)c1ccc(C2CN(c3c(F)cc4c(=O)c(C(=O)O)cn(C5CC5)c4c3F)CC2N)cc1 (stereo not drawn)
MEASURED_QUANTITY: MIC
MEASURED_VALUE: 3.1
//
COMPOUND: NCc1cccc(C2CN(c3nc4c(cc3F)c(=O)c(C(=O)O)cn4C3CC3)CC2CN)c1 (trans isomer)
MEASURED_QUANTITY: MIC
MEASURED_VALUE: 12.5
//
COMPOUND: CC(C)c1ccc(C2CN(c3c(F)cc4c(=O)c(C(=O)O)cn(C5CC5)c4c3F)CC2N)cc1 (trans isomer)
MEASURED_QUANTITY: MIC
MEASURED_VALUE: 3.1
//
COMPOUND: NCC1CN(c2nc3c(cc2F)c(=O)c(C(=O)O)cn3C2CC2)CC1c1ccc(N)cc1 (cis isomer)
MEASURED_QUANTITY: MIC
MEASURED_VALUE: 1.6

Measured MIC (Pseudomonas aeruginosa), entry CCOC(=O)C1CC1C1CN(c2cc3c(cc2F)c(=O)c(C(=O)O)cn3C2CC2)CC1N (trans isomer) : 3.1

Measured MIC (Pseudomonas aeruginosa), entry NC1CN(c2c(F)cc3c(=O)c(C(=O)O)cn(C4CC4)c3c2F)CC1c1ccc(Cl)c(Cl)c1 (trans isomer) : 1.6

Measured MIC (Pseudomonas aeruginosa), entry NC1CN(c2nc3c(cc2F)c(=O)c(C(=O)O)cn3C2CC2)CC1c1ccc(Cl)c(Cl)c1 (trans isomer) : 3.1
